# System: Saccharomyces cerevisiae
# protocol_details: Inhibition of Saccharomyces cerevisiae alpha-glucosidase at 20 uM using 4-nitrophenyl D-glucopyranoside as substrate after 3 mins by UV/Vis spectrophotometric method relative to control
measured_parameter: inhibition (%)
Quick reminder: number only, in %, skip the unit.

Worked examples, 3 compounds total:
compound	inhibition / %
OC[C@H]1C[C@H](O)[C@H](O)[C@H](O)[C@H]1CO	6
OC[C@H]1C[C@@H](O)[C@H](O)[C@H](O)[C@H]1CO	18.8
OC[C@H]1C[C@H](O)[C@@H](O)[C@@H](O)[C@H]1CO	13

Let us move to another entry and its inhibition.
Q) // Input: C[C@H]1O[C@H](O[C@H]2[C@H](O)[C@@H](O)[C@@H](O[C@H]3[C@H](O)[C@@H](O)C(O)O[C@@H]3CO)O[C@@H]2CO)[C@H](O)[C@@H](O)[C@@H]1N[C@H]1C=C(CO)[C@@H](O)[C@H](O)[C@H]1O (some centres undefined) . Output its inhibition only.
A) 30

* * *

# System: Prunus dulcis
# protocol_details: Inhibition of almond beta-glucosidase at 80 uM using p-nitrophenyl D-glucopyranoside as substrate after 3 mins by UV/Vis spectrophotometric method relative to control
Reported inhibition values for the following molecules.

The cases that follow already have their inhibition on record.
molecule	inhibition
OC[C@H]1C[C@H](O)[C@H](O)[C@H](O)[C@H]1CO	37.5%
C[C@H]1O[C@H](O[C@H]2[C@H](O)[C@@H](O)[C@@H](O[C@H]3[C@H](O)[C@@H](O)C(O)O[C@@H]3CO)O[C@@H]2CO)[C@H](O)[C@@H](O)[C@@H]1N[C@H]1C=C(CO)[C@@H](O)[C@H](O)[C@H]1O (some centres undefined)	52%
OC[C@H]1C[C@@H](O)[C@H](O)[C@H](O)[C@H]1CO	31.8%

Shift focus to the following entry.
Q) For the molecule OC[C@H]1C[C@H](O)[C@@H](O)[C@@H](O)[C@H]1CO , report inhibition.
A) 19.1%

* * *

The following compounds are shown together with reported inhibition values.
# Test system: Saccharomyces cerevisiae
# protocol_details: Inhibition of Saccharomyces cerevisiae alpha-glucosidase at 25 uM using 4-nitrophenyl D-glucopyranoside as substrate after 3 mins by UV/Vis spectrophotometric method relative to control
Lab book: enter the figure in %, no units written.

compound	inhibition [%]
OC[C@H]1C[C@H](O)[C@@H](O)[C@@H](O)[C@H]1CO	19
C[C@H]1O[C@H](O[C@H]2[C@H](O)[C@@H](O)[C@@H](O[C@H]3[C@H](O)[C@@H](O)C(O)O[C@@H]3CO)O[C@@H]2CO)[C@H](O)[C@@H](O)[C@@H]1N[C@H]1C=C(CO)[C@@H](O)[C@H](O)[C@H]1O (some centres undefined)	33
OC[C@H]1C[C@H](O)[C@H](O)[C@H](O)[C@H]1CO	14

Q) State inhibition on Saccharomyces cerevisiae. Entry: OC[C@H]1C[C@@H](O)[C@H](O)[C@H](O)[C@H]1CO
A) 19.4

* * *

# Tested on: Prunus dulcis
# protocol_details: Inhibition of almond beta-glucosidase at 45 uM using p-nitrophenyl D-glucopyranoside as substrate after 3 mins by UV/Vis spectrophotometric method relative to control
The following compounds are shown together with reported inhibition values.
Could you give me the number in %? Just the number is fine.

compound	value_measured
OC[C@H]1C[C@@H](O)[C@H](O)[C@H](O)[C@H]1CO	30.4
OC[C@H]1C[C@H](O)[C@@H](O)[C@@H](O)[C@H]1CO	13.7

Q) Fetch value of inhibition on Prunus dulcis for C[C@H]1O[C@H](O[C@H]2[C@H](O)[C@@H](O)[C@@H](O[C@H]3[C@H](O)[C@@H](O)C(O)O[C@@H]3CO)O[C@@H]2CO)[C@H](O)[C@@H](O)[C@@H]1N[C@H]1C=C(CO)[C@@H](O)[C@H](O)[C@H]1O (some centres undefined) [ACARBOSE] .
A) 39

Q) Fetch value of inhibition on Prunus dulcis for OC[C@H]1C[C@H](O)[C@H](O)[C@H](O)[C@H]1CO .
A) 34.3

* * *

# Test system: Prunus dulcis
# protocol_details: Inhibition of almond beta-glucosidase at 10 uM using p-nitrophenyl D-glucopyranoside as substrate after 3 mins by UV/Vis spectrophotometric method relative to control
measured_parameter: inhibition
Reply with the number, then its unit.

molecule	experimental_target	value_measured
OC[C@H]1C[C@H](O)[C@H](O)[C@H](O)[C@H]1CO	Prunus dulcis	18%
OC[C@H]1C[C@@H](O)[C@H](O)[C@H](O)[C@H]1CO	Prunus dulcis	3.4%
C[C@H]1O[C@H](O[C@H]2[C@H](O)[C@@H](O)[C@@H](O[C@H]3[C@H](O)[C@@H](O)C(O)O[C@@H]3CO)O[C@@H]2CO)[C@H](O)[C@@H](O)[C@@H]1N[C@H]1C=C(CO)[C@@H](O)[C@H](O)[C@H]1O (some centres undefined)	Prunus dulcis	17%

Shifting focus to the molecule that follows.
Q) Return inhibition for the following molecule: OC[C@H]1C[C@H](O)[C@@H](O)[C@@H](O)[C@H]1CO
A) 2.2%

* * *

# System: Saccharomyces cerevisiae
# protocol_details: Inhibition of Saccharomyces cerevisiae alpha-glucosidase at 10 uM using 4-nitrophenyl D-glucopyranoside as substrate after 3 mins by UV/Vis spectrophotometric method relative to control
# key: entry, value: inhibition
The response must be a number in % with no trailing unit.

Past entries and their recorded results:
molecule	measure_unit	value_measured
OC[C@H]1C[C@H](O)[C@H](O)[C@H](O)[C@H]1CO	%	2
C[C@H]1O[C@H](O[C@H]2[C@H](O)[C@@H](O)[C@@H](O[C@H]3[C@H](O)[C@@H](O)C(O)O[C@@H]3CO)O[C@@H]2CO)[C@H](O)[C@@H](O)[C@@H]1N[C@H]1C=C(CO)[C@@H](O)[C@H](O)[C@H]1O (some centres undefined)	%	22
OC[C@H]1C[C@@H](O)[C@H](O)[C@H](O)[C@H]1CO	%	15.8

Next, consider the following molecule.
Q) Specify measured inhibition for OC[C@H]1C[C@H](O)[C@@H](O)[C@@H](O)[C@H]1CO .
A) 10

* * *

# Test system: Prunus dulcis
# protocol_details: Inhibition of almond beta-glucosidase at 120 uM using p-nitrophenyl D-glucopyranoside as substrate after 3 mins by UV/Vis spectrophotometric method relative to control
measured_parameter: inhibition (%)
Please give a number only; it is taken to be in %.

// worked examples, inhibition included
compound	inhibition / %
OC[C@H]1C[C@H](O)[C@H](O)[C@H](O)[C@H]1CO	42.7
OC[C@H]1C[C@H](O)[C@@H](O)[C@@H](O)[C@H]1CO	20.2
OC[C@H]1C[C@@H](O)[C@H](O)[C@H](O)[C@H]1CO	32.1

Proceed to the following item.
Q) Retrieve inhibition measured for C[C@H]1O[C@H](O[C@H]2[C@H](O)[C@@H](O)[C@@H](O[C@H]3[C@H](O)[C@@H](O)C(O)O[C@@H]3CO)O[C@@H]2CO)[C@H](O)[C@@H](O)[C@@H]1N[C@H]1C=C(CO)[C@@H](O)[C@H](O)[C@H]1O (some centres undefined) and print it.
A) 60

* * *

# Tested on: Saccharomyces cerevisiae
# protocol_details: Inhibition of Saccharomyces cerevisiae alpha-glucosidase at 180 uM using 4-nitrophenyl D-glucopyranoside as substrate after 3 mins by UV/Vis spectrophotometric method relative to control
measured_parameter: inhibition (%)
Note: unit % is implicit; provide only the numeric part.

compound	value_measured
C[C@H]1O[C@H](O[C@H]2[C@H](O)[C@@H](O)[C@@H](O[C@H]3[C@H](O)[C@@H](O)C(O)O[C@@H]3CO)O[C@@H]2CO)[C@H](O)[C@@H](O)[C@@H]1N[C@H]1C=C(CO)[C@@H](O)[C@H](O)[C@H]1O (some centres undefined)	74
OC[C@H]1C[C@H](O)[C@@H](O)[C@@H](O)[C@H]1CO	42
OC[C@H]1C[C@H](O)[C@H](O)[C@H](O)[C@H]1CO	25

Proceed to the following item.
Q) Return value of inhibition for input OC[C@H]1C[C@@H](O)[C@H](O)[C@H](O)[C@H]1CO , no commentary.
A) 42.2

* * *

# Test system: Prunus dulcis
# protocol_details: Inhibition of almond beta-glucosidase at 180 uM using p-nitrophenyl D-glucopyranoside as substrate after 3 mins by UV/Vis spectrophotometric method relative to control
Reported inhibition by item:
The figure you give is taken to be in %; do not add the unit.

Worked cases, answers included:
molecule	value_measured
OC[C@H]1C[C@H](O)[C@H](O)[C@H](O)[C@H]1CO	51.8
OC[C@H]1C[C@H](O)[C@@H](O)[C@@H](O)[C@H]1CO	30.8
OC[C@H]1C[C@@H](O)[C@H](O)[C@H](O)[C@H]1CO	33.3

Now look at this entry.
Q) Give the value of inhibition reported for the following: C[C@H]1O[C@H](O[C@H]2[C@H](O)[C@@H](O)[C@@H](O[C@H]3[C@H](O)[C@@H](O)C(O)O[C@@H]3CO)O[C@@H]2CO)[C@H](O)[C@@H](O)[C@@H]1N[C@H]1C=C(CO)[C@@H](O)[C@H](O)[C@H]1O (some centres undefined) [ACARBOSE]
A) 66
